# System: Plasmodium berghei
# EXPERIMENT: Screen against P. berghei liver stage (PbLuc), transformed with Luciferase, at 10uM
# Assay type: functional, HepG2
# STATED CONDITIONS: tested at 10 uM
The campaign covered roughly 69,000 compounds. About 8,600 (12%) showed an effect of 50% or more. What follows is part of a selection rich in strong results, with near analogues and random picks from the rest.
I'd appreciate it if you could supply INHIBITION values for the items below.
Express the result in % but write the number alone.

Which INHIBITION is reported with Plasmodium berghei for this entry: CC(C)CN1CC(C(=O)NCc2cccnc2-n2cccn2)CC1=O (stereo not drawn) ?
19.5

Which INHIBITION is reported with Plasmodium berghei for this entry: CS(=O)(=O)N1CCCC(c2cccc(-c3ccccc3F)n2)C1 (stereo not drawn) ?
12.675

Which INHIBITION is reported with Plasmodium berghei for this entry: `CN(C)S(=O)(=O)N1CCC(c2ccncn2)CC1` ?
-9.32

Which INHIBITION is reported with Plasmodium berghei for this entry: `Cc1nc(CSCc2ccc(OCC(F)(F)F)nc2)no1` ?
40.7

Which INHIBITION is reported with Plasmodium berghei for this entry: `CC(=O)c1ccc(N2CCN(C(=O)c3cnn4c3OCCC4)CC2)cc1` ?
16

Which INHIBITION is reported with Plasmodium berghei for this entry: O=C(CCC1CCN(C2CCSCC2)CC1)NCC1CCCO1 (stereo not drawn) ?
42.1

Which INHIBITION is reported with Plasmodium berghei for this entry: Cc1ccc(-c2noc(C3CCN3C(=O)c3cc[nH]n3)n2)s1 (stereo not drawn) ?
85

Which INHIBITION is reported with Plasmodium berghei for this entry: CN(C)S(=O)(=O)N1CCCC(c2cccc(Cc3ccccc3F)n2)C1 (stereo not drawn) ?
15.9

Which INHIBITION is reported with Plasmodium berghei for this entry: CCC(NS(=O)(=O)N1CCOCC1)c1ccccc1OC (stereo not drawn) ?
4.41

Which INHIBITION is reported with Plasmodium berghei for this entry: `O=S(=O)(NCCc1ccccc1C(F)(F)F)N1CCOCC1` ?
24.3

Which INHIBITION is reported with Plasmodium berghei for this entry: `CCCc1nc(CN(CC)C(=O)c2ccc3[nH]cnc3c2)no1` ?
30.1

Which INHIBITION is reported with Plasmodium berghei for this entry: `Cc1nnc(CSCc2ccc(OCC(F)(F)F)nc2)o1` ?
56

Which INHIBITION is reported with Plasmodium berghei for this entry: COc1cccc(OC)c1CN1CC(O)CN(S(C)(=O)=O)CC1=O (stereo not drawn) ?
46.4

Which INHIBITION is reported with Plasmodium berghei for this entry: `O=C(NCCc1ccc(I)s1)N1CCC1` ?
-7.31

Which INHIBITION is reported with Plasmodium berghei for this entry: Cc1nc(COc2ccc(CNCC3CN(C)CCO3)cc2)cs1 (stereo not drawn) ?
32.4

Which INHIBITION is reported with Plasmodium berghei for this entry: `Cc1cnc(C)c(N2CCN(CCCc3ccncc3)CC2)n1` ?
76

Which INHIBITION is reported with Plasmodium berghei for this entry: COc1ccc(OC)c(C(O)CNC(=O)Nc2ccc(F)cc2F)c1 (stereo not drawn) ?
-27

Which INHIBITION is reported with Plasmodium berghei for this entry: `CO[C@@H]1CCN(Cc2nccn2C)[C@H]1Cc1cccnc1` ?
32.2

Which INHIBITION is reported with Plasmodium berghei for this entry: CN(C)S(=O)(=O)N1CCCC(c2cccc(Cc3ccc(F)cc3)n2)C1 (stereo not drawn) ?
96

Which INHIBITION is reported with Plasmodium berghei for this entry: `CCCc1nc(CN(CC)C(=O)c2ccc(OC)c(OC)c2)no1` ?
30.1

Which INHIBITION is reported with Plasmodium berghei for this entry: CCc1nc(C2CCCN2C(=O)c2ccc3c(c2)nc(C)n3C)no1 (stereo not drawn) ?
-8.3

Which INHIBITION is reported with Plasmodium berghei for this entry: `CSCc1cccc(S(=O)(=O)Nc2cc(C)on2)c1` ?
8.7

Which INHIBITION is reported with Plasmodium berghei for this entry: `CSCCN1CCN(c2nc(N)ncc2C)CC1` ?
19.4

Which INHIBITION is reported with Plasmodium berghei for this entry: `CC(=O)N1C[C@H]2CC[C@@H](C1)N(S(=O)(=O)c1cc(F)ccc1C)C2` ?
-18.1

Which INHIBITION is reported with Plasmodium berghei for this entry: Cc1cc(C2CCCN(S(=O)(=O)N(C)C)C2)ccn1 (stereo not drawn) ?
-20.6

Which INHIBITION is reported with Plasmodium berghei for this entry: `COC(=O)c1cccc(S(=O)(=O)NC(=O)COC2CCCCC2)c1` ?
38.8

Which INHIBITION is reported with Plasmodium berghei for this entry: CN(Cc1cccnc1)Cc1cn2c(n1)CN(C1CCOC1)CC2 (stereo not drawn) ?
28.3

Which INHIBITION is reported with Plasmodium berghei for this entry: `Cc1noc(C)c1-c1cccc(C2CCN(S(=O)(=O)N(C)C)CC2)n1` ?
32.4

Which INHIBITION is reported with Plasmodium berghei for this entry: `CN1CCC2(C=C(C(=O)N3CCCC3)c3ccccc32)CC1` ?
26.4

Which INHIBITION is reported with Plasmodium berghei for this entry: O=C(NCc1ccc(CO)cc1)C1CCOc2ccccc2C1 (stereo not drawn) ?
5.91

Which INHIBITION is reported with Plasmodium berghei for this entry: Cc1c[nH]nc1C1CCN(S(=O)(=O)N(C)C)C1 (stereo not drawn) ?
-9.32

Which INHIBITION is reported with Plasmodium berghei for this entry: `CO[C@H]1CN(C(C)C)C[C@@H]1NC(=O)Nc1ccc(C(F)(F)F)cc1` ?
40.3

Which INHIBITION is reported with Plasmodium berghei for this entry: `FC(F)(F)COc1ccc(CSCc2ccon2)cn1` ?
24

Which INHIBITION is reported with Plasmodium berghei for this entry: `Cc1cnc(C)c(N2CCN(CCCc3[nH]nc(C)c3C)CC2)n1` ?
30.3

Which INHIBITION is reported with Plasmodium berghei for this entry: CCn1ncc2c1CCCC2NCc1ccc(OC)cc1OC (stereo not drawn) ?
42

Which INHIBITION is reported with Plasmodium berghei for this entry: CCc1nc(C2CCCN2C(=O)c2cc(C3CC3)[nH]n2)no1 (stereo not drawn) ?
9.32

Which INHIBITION is reported with Plasmodium berghei for this entry: CC(C)NC(=O)N1CCOC2(CCCN(c3ncccc3F)C2)C1 (stereo not drawn) ?
2.58

Which INHIBITION is reported with Plasmodium berghei for this entry: CN(Cc1nc2ccccc2o1)C1CCCN(c2cccnn2)C1 (stereo not drawn) ?
28.8

Which INHIBITION is reported with Plasmodium berghei for this entry: Cc1ccc(-c2noc(C3CCN3C(=O)c3ccc(=O)[nH]n3)n2)s1 (stereo not drawn) ?
4.505

Which INHIBITION is reported with Plasmodium berghei for this entry: Cc1noc(C(C)N2CCN(CCc3ccncc3)CC2)n1 (stereo not drawn) ?
-11.9

Which INHIBITION is reported with Plasmodium berghei for this entry: CN(C)S(=O)(=O)N1CCCC(c2nccnc2-c2cccc(Cl)c2)C1 (stereo not drawn) ?
5.37

Which INHIBITION is reported with Plasmodium berghei for this entry: `CCCc1nc(CN(CC)C(=O)c2ccc3c(c2)nnn3C)no1` ?
52.8

Which INHIBITION is reported with Plasmodium berghei for this entry: `CCN(CC)CCCN1CCN(c2nc(C)cnc2C)CC1` ?
71.1

Which INHIBITION is reported with Plasmodium berghei for this entry: `COCCN1CCCN(C(=O)c2scnc2C)CC1` ?
-2.03

Which INHIBITION is reported with Plasmodium berghei for this entry: `COc1ccc(-c2nc(CN3CCCS3(=O)=O)co2)cc1` ?
-91.4

Which INHIBITION is reported with Plasmodium berghei for this entry: COCC(=O)NC(C)c1sc(-c2ccccc2F)nc1C (stereo not drawn) ?
84.2

Which INHIBITION is reported with Plasmodium berghei for this entry: `COc1ccc(-c2nc(CN3CCN(CCO)CC3)co2)cc1` ?
59.7

Which INHIBITION is reported with Plasmodium berghei for this entry: Cc1nn(C)c(C)c1-c1cnc(C2CCCN(S(C)(=O)=O)C2)cn1 (stereo not drawn) ?
-6.92
